# target of assay: Tyrosine-protein phosphatase non-receptor type 1 (Homo sapiens, UniProt P18031)
# Sequence (P18031 whole entry): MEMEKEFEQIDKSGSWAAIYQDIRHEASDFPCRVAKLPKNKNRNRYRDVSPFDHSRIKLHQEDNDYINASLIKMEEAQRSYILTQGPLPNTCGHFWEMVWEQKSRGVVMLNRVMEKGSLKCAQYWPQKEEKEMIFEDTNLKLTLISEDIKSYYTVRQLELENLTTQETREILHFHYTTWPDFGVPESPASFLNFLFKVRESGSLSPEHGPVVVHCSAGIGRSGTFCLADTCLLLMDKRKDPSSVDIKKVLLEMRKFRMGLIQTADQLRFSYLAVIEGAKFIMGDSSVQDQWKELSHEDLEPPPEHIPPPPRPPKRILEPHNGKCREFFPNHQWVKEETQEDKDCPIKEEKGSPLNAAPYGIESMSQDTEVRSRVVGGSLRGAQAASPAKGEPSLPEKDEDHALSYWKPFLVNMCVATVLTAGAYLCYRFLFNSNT
# assay notes: Inhibition of N-terminal His tagged recombinant human PTP1B expressed in Escherichia coli using pNPP as substrate assessed as substrate hydrolysis
Square brackets hold non-standard residues; d marks the D form. Peptide text beside a SMILES is read from it. * marks the point of attachment. ξ: configuration not given here. Palmitoyl = CCCCCCCCCCCCCCCC(=O)*; Myristoyl = CCCCCCCCCCCCCC(=O)*; Lauroyl = CCCCCCCCCCCC(=O)*; Decanoyl = CCCCCCCCCC(=O)*; ξR = N=C(N)NCCCC(N)C(=O)O
measured attribute: pIC50
Convention used: pIC50 is expressed as -log10 of the molar concentration.

Field: example entries. Status: answers known.
CCCCCCCCCC(=O)N[C@H](C(=O)N[C@@H](C)C(=O)N[C@@H](CCC(N)=O)C(=O)N[C@@H](CCC(=O)O)C(=O)N[C@@H](CC(C)C)C(=O)N[C@@H](CCCNC(=N)N)C(=O)N[C@@H](CCCNC(=N)N)C(=O)N[C@H](C(=O)NCC(=O)N[C@@H](CC(=O)O)C(=O)N[C@@H](CCC(=O)O)C(=O)N[C@@H](Cc1ccccc1)C(=O)O)[C@@H](C)CC)[C@@H](C)CC (Decanoyl-IAQELRRIGDEF-OH)    5.67
CCCCCCCCCCCCCCCC(=O)N[C@H](C(=O)N[C@@H](C)C(=O)N[C@@H](CCC(N)=O)C(=O)N[C@@H](CCC(=O)O)C(=O)N[C@@H](CC(C)C)C(=O)N[C@@H](CCCNC(=N)N)C(=O)N[C@@H](CCCNC(=N)N)C(=O)N[C@H](C(=O)NCC(=O)N[C@@H](CC(=O)O)C(=O)N[C@@H](CCC(=O)O)C(=O)N[C@@H](Cc1ccccc1)C(=O)O)[C@@H](C)CC)[C@@H](C)CC (Palmitoyl-IAQELRRIGDEF-OH)    6.02
CCCCCCCCCCCC(=O)N[C@H](C(=O)N[C@@H](C)C(=O)N[C@@H](CCC(N)=O)C(=O)N[C@@H](CCC(=O)O)C(=O)N[C@@H](CC(C)C)C(=O)N[C@@H](CCCNC(=N)N)C(=O)N[C@@H](CCCNC(=N)N)C(=O)N[C@H](C(=O)NCC(=O)N[C@@H](CC(=O)O)C(=O)N[C@@H](CCC(=O)O)C(=O)N[C@@H](Cc1ccccc1)C(=O)O)[C@@H](C)CC)[C@@H](C)CC (Lauroyl-IAQELRRIGDEF-OH)    5.56
CCCCCCCCCCCCCC(=O)N[C@H](C(=O)N[C@@H](C)C(=O)N[C@@H](CCC(N)=O)C(=O)N[C@@H](CCC(=O)O)C(=O)N[C@@H](CC(C)C)C(=O)N[C@@H](CCCNC(=N)N)C(=O)NC(CCCNC(=N)N)C(=O)N[C@H](C(=O)NCC(=O)N[C@@H](CC(=O)O)C(=O)N[C@@H](CCC(=O)O)C(=O)N[C@@H](Cc1ccccc1)C(=O)O)[C@@H](C)CC)[C@@H](C)CC (stereo not given in full) (Myristoyl-IAQELR[ξR]IGDEF-OH)    6.58

Task: Retrieve pIC50 measured for CCCCCCCCCCCCCCCC(=O)N[C@@H](CCC(=O)N[C@H](C(=O)N[C@@H](C)C(=O)N[C@H](CCC(N)=O)C(=O)N[C@@H](CCC(=O)O)C(=O)N[C@@H](CC(C)C)C(=O)N[C@@H](CCCNC(=N)N)C(=O)N[C@@H](CCCNC(=N)N)C(=O)N[C@H](C(=O)NCC(=O)N[C@@H](CC(=O)O)C(=O)N[C@@H](CCC(=O)O)C(=O)N[C@@H](Cc1ccccc1)C(=O)O)[C@@H](C)CC)[C@@H](C)CC)C(=O)O and print it.
Result: 5.36
